experiment: Intracolonic dosing with and without β-glucuronidase, catheterized rat; type: in vivo; conditions: male, Sprague Dawley, rat, plasma, other: intracolonic, 10 mg/kg, rats N=6; Compound 1 10 mg/kg intracolonic with β-glucuronidase; 2 hrs
Measured property: concentration at 2 h (ng/mL)

INSERT INTO assay_data (compound, recorded_measurement) VALUES
  ('COc1cc2c(cc1OC)-c1nn(C3OC(C(=O)O)C(O)C(O)C3O)c(Nc3cccc(F)c3)c1C2 (stereo in doubt)', 275),
  ('COc1cc2c(cc1OC)-c1n[nH]c(Nc3cccc(F)c3)c1C2', 21.2),
  ('COc1cc2c(cc1OC)-c1n[nH]c(N(c3cccc(F)c3)[C@H]3O[C@@H](C(=O)O)[C@H](O)[C@@H](O)[C@@H]3O)c1C2', 812);

* * *

Assay: Intracolonic dosing with and without β-glucuronidase, catheterized rat
Format: in vivo
Conditions: male, Sprague Dawley, rat, plasma, 10 mg/kg, with and without β-glucuronidase; read-out: AUC of parent after intracolonic administration
Procedure: A catheterized rat model was used in which the agent alone or agent and β-glucuronidase enzyme was administered intraduodenally or intracolonically. […] A quantitative method for determining the amount of (6,7-dimethoxy-2,4-dihydro-indeno[1,2-c]pyrazol-3-yl)-(3-fluoro-phenyl)-amine Compound 1 and its major metabolites, glucuronide A (Cpd 1-GluA) and glucuronide B (Cpd 1-GluB) (see Scheme A) in rat plasma was developed using phenacetin as an internal standard. […]
Measured property: AUC

INSERT INTO measurements (molecule, recorded_measurement) VALUES
  ('COc1cc2c(cc1OC)-c1n[nH]c(Nc3cccc(F)c3)c1C2', '< 16 ng·h/mL');

* * *

experiment: Intraduodenal dosing with and without β-glucuronidase, catheterized rat; type: in vivo; settings: male, Sprague Dawley, rat, plasma, 10 mg/kg, rats N=6; Compound 1 10 mg/kg intraduodenal without enzyme; read-out: AUC average ± standard deviation 0 to 6 hours
Let's look at some molecules and their measured AUC.
Measured property: AUC (ng·h/mL)

INSERT INTO measurements (molecule, recorded_measurement) VALUES
  ('COc1cc2c(cc1OC)-c1n[nH]c(N(c3cccc(F)c3)[C@H]3O[C@@H](C(=O)O)[C@H](O)[C@@H](O)[C@@H]3O)c1C2 [Cpd 1-GluA]', 1220),
  ('COc1cc2c(cc1OC)-c1n[nH]c(Nc3cccc(F)c3)c1C2 [Compound 1]', 60),
  ('COc1cc2c(cc1OC)-c1nn(C3OC(C(=O)O)C(O)C(O)C3O)c(Nc3cccc(F)c3)c1C2 (stereo in doubt) [Cpd 1-GluB]', 128);

* * *

assay: Intracolonic dosing with and without β-glucuronidase, catheterized rat; type: in vivo; conditions: male, Sprague Dawley, rat, plasma, 10 mg/kg, rats N=6; Compound 1 10 mg/kg intracolonic without enzyme; read-out: Cmax average ± standard deviation
Measured property: Cmax (ng/mL)

INSERT INTO results (molecule, measured_property, unit_abbreviation, recorded_measurement) VALUES
  ('COc1cc2c(cc1OC)-c1nn(C3OC(C(=O)O)C(O)C(O)C3O)c(Nc3cccc(F)c3)c1C2 (stereo in doubt)', 'Cmax', 'ng/mL', 140),
  ('COc1cc2c(cc1OC)-c1n[nH]c(N(c3cccc(F)c3)[C@H]3O[C@@H](C(=O)O)[C@H](O)[C@@H](O)[C@@H]3O)c1C2', 'Cmax', 'ng/mL', 1550),
  ('COc1cc2c(cc1OC)-c1n[nH]c(Nc3cccc(F)c3)c1C2', 'Cmax', 'ng/mL', 9.5);

* * *

Let's look at some molecules and their measured AUC.
assay: Oral gavage pharmacokinetics, jugular and portal vein sampling, first pass metabolism; type: in vivo, rat; settings: male, Sprague Dawley, rat, plasma (jugular vein sample), po, 75 mg/kg, rats N=4; Compound 1 75 mg/kg oral gavage; jugular sample; read-out: AUC average ± standard deviation 0 to 24 hours
Measured property: AUC (ng·h/mL)

INSERT INTO measurements (molecule, recorded_measurement) VALUES
  ('COc1cc2c(cc1OC)-c1n[nH]c(Nc3cccc(F)c3)c1C2', 2340),
  ('COc1cc2c(cc1OC)-c1n[nH]c(N(c3cccc(F)c3)[C@H]3O[C@@H](C(=O)O)[C@H](O)[C@@H](O)[C@@H]3O)c1C2', 117000),
  ('COc1cc2c(cc1OC)-c1nn(C3OC(C(=O)O)C(O)C(O)C3O)c(Nc3cccc(F)c3)c1C2 (stereo in doubt)', 1710);

* * *

assay: Oral gavage pharmacokinetics, jugular and portal vein sampling, first pass metabolism; type: in vivo, rat; details: male, Sprague Dawley, rat, portal vein plasma; rats N=4; Compound 1 75 mg/kg oral gavage; portal sample; read-out: Cmax average ± standard deviation
Let's look at some compounds and their measured Cmax.
Measured property: Cmax (ng/mL)

INSERT INTO assay_data (compound, recorded_measurement) VALUES
  ('COc1cc2c(cc1OC)-c1n[nH]c(Nc3cccc(F)c3)c1C2 [Compound 1]', 8690),
  ('COc1cc2c(cc1OC)-c1n[nH]c(N(c3cccc(F)c3)[C@H]3O[C@@H](C(=O)O)[C@H](O)[C@@H](O)[C@@H]3O)c1C2 [Cpd 1-GluA]', 29200),
  ('COc1cc2c(cc1OC)-c1nn(C3OC(C(=O)O)C(O)C(O)C3O)c(Nc3cccc(F)c3)c1C2 (stereo in doubt) [Cpd 1-GluB]', 324);

* * *

Let's look at some molecules and their measured AUC.
assay: IV pharmacokinetics of Compound 1 and its glucuronides in rats; format: in vivo, rat; conditions: Sprague Dawley, rat, plasma; male rats N=4; Compound 1 2 mg/kg IV; read-out: AUC average ± standard deviation
Measured property: AUC (ng·h/mL)

INSERT INTO results (molecule, unit_abbreviation, recorded_measurement) VALUES
  ('COc1cc2c(cc1OC)-c1n[nH]c(N(c3cccc(F)c3)[C@H]3O[C@@H](C(=O)O)[C@H](O)[C@@H](O)[C@@H]3O)c1C2', 'ng·h/mL', 8210),
  ('COc1cc2c(cc1OC)-c1nn(C3OC(C(=O)O)C(O)C(O)C3O)c(Nc3cccc(F)c3)c1C2 (stereo in doubt)', 'ng·h/mL', 103),
  ('COc1cc2c(cc1OC)-c1n[nH]c(Nc3cccc(F)c3)c1C2', 'ng·h/mL', 345);

* * *

test: Intraduodenal dosing with and without β-glucuronidase, catheterized rat; type: in vivo; settings: male, Sprague Dawley, rat, plasma, other: intraduodenal, 10 mg/kg, rats N=6; Compound 1 10 mg/kg intraduodenal without enzyme; 6 hrs
Let's look at some compounds and their measured concentration at 6 h.
Measured property: concentration at 6 h (ng/mL)

INSERT INTO results (compound, recorded_measurement) VALUES
  ('COc1cc2c(cc1OC)-c1n[nH]c(Nc3cccc(F)c3)c1C2', 0),
  ('COc1cc2c(cc1OC)-c1nn(C3OC(C(=O)O)C(O)C(O)C3O)c(Nc3cccc(F)c3)c1C2 (stereo in doubt)', 10.4),
  ('COc1cc2c(cc1OC)-c1n[nH]c(N(c3cccc(F)c3)[C@H]3O[C@@H](C(=O)O)[C@H](O)[C@@H](O)[C@@H]3O)c1C2', 90.2);

* * *

assay: IV pharmacokinetics of Compound 1 and its glucuronides in rats; assay type: in vivo, rat; conditions: Sprague Dawley, rat, plasma; male rats N=4; Compound 1 2 mg/kg IV; read-out: C0 (concentration at zero time, by extrapolation)
Measured property: C0

INSERT INTO assay_data (molecule, recorded_measurement) VALUES
  ('COc1cc2c(cc1OC)-c1n[nH]c(Nc3cccc(F)c3)c1C2 [Compound 1]', '783 ng/mL');

* * *

test: Intracolonic dosing with and without β-glucuronidase, catheterized rat; format: in vivo; details: male, Sprague Dawley, rat, plasma, 10 mg/kg, rats N=6; Compound 1 10 mg/kg intracolonic with β-glucuronidase; read-out: Cmax average ± standard deviation
Measured property: Cmax (ng/mL)

INSERT INTO assay_data (compound, measured_property, recorded_measurement) VALUES
  ('COc1cc2c(cc1OC)-c1n[nH]c(N(c3cccc(F)c3)[C@H]3O[C@@H](C(=O)O)[C@H](O)[C@@H](O)[C@@H]3O)c1C2 [Cpd 1-GluA]', 'Cmax', 755),
  ('COc1cc2c(cc1OC)-c1nn(C3OC(C(=O)O)C(O)C(O)C3O)c(Nc3cccc(F)c3)c1C2 (stereo in doubt) [Cpd 1-GluB]', 'Cmax', 79.4),
  ('COc1cc2c(cc1OC)-c1n[nH]c(Nc3cccc(F)c3)c1C2 [Compound 1]', 'Cmax', 4);

* * *

Let's look at some molecules and their measured concentration at 1.5 h.
experiment: Oral gavage pharmacokinetics, jugular and portal vein sampling, first pass metabolism; format: in vivo, rat; conditions: male, Sprague Dawley, rat, plasma (portal vein sample); rats N=4; Compound 1 75 mg/kg oral gavage; portal sample; 1.5 hrs
Measured property: concentration at 1.5 h (ng/mL)

INSERT INTO results (molecule, unit_abbreviation, recorded_measurement) VALUES
  ('COc1cc2c(cc1OC)-c1n[nH]c(Nc3cccc(F)c3)c1C2', 'ng/mL', 465),
  ('COc1cc2c(cc1OC)-c1n[nH]c(N(c3cccc(F)c3)[C@H]3O[C@@H](C(=O)O)[C@H](O)[C@@H](O)[C@@H]3O)c1C2', 'ng/mL', 12200),
  ('COc1cc2c(cc1OC)-c1nn(C3OC(C(=O)O)C(O)C(O)C3O)c(Nc3cccc(F)c3)c1C2 (stereo in doubt)', 'ng/mL', 151);

Value source: patent US20080031866A1
